Measured values drawn from patent US12617777B2 for this set.

- study-target: human GPR84 receptor (Homo sapiens, UniProt Q9NQS5)
- Construct: host or cells: HEK293, transient transfection
- Sequence (Q9NQS5 whole entry): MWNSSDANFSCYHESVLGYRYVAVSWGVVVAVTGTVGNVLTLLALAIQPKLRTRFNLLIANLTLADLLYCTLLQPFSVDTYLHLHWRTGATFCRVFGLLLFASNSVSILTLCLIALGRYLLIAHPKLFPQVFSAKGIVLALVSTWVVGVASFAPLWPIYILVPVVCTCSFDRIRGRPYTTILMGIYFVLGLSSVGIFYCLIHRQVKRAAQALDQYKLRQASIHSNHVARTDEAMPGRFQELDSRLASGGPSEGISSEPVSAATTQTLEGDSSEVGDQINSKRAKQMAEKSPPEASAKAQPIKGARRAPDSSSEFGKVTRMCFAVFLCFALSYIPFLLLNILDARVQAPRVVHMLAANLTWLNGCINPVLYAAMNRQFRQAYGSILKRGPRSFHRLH
- assay-details: Gαi biosensor BRET assay in HEK293 cells (antagonism of ZQ-16)
- Type: cell-based
- test-conditions: HEK293, single concentration 10 μM (designated F)
For each record, write down the corresponding inhibition at 10 µM.

I looked up COc1ccc(C)c(N(C)c2cn(CC3OCC(C)(C)CO3)nn2)c1 [Compound I-814] and its inhibition at 10 µM for human GPR84 receptor (Homo sapiens, UniProt Q9NQS5) was ≤ 25%

I looked up CN(c1cn(CC2OCC(C)(C)CO2)nn1)c1cc(C#N)ccc1Cl [Compound I-803] and its inhibition at 10 µM for human GPR84 receptor (Homo sapiens, UniProt Q9NQS5) was > 75%

I looked up Cc1ccc(C#CC2CC2)cc1Cc1cn(C[C@H]2CCCCO2)nn1 [Compound I-587] and its inhibition at 10 µM for human GPR84 receptor (Homo sapiens, UniProt Q9NQS5) was 50 to 75%

I looked up Cc1cc(N2CCN(Cc3ncccn3)CC2)ccc1-c1cn(CC2CCCCO2)nn1 (stereo not drawn) [Compound I-547] and its inhibition at 10 µM for human GPR84 receptor (Homo sapiens, UniProt Q9NQS5) was 25 to 50%

I looked up Cc1cc(C#CCN2CCCC2C(=O)O)ccc1-c1cn(CC2CCCCO2)nn1 (stereo not drawn) [Compound I-247] and its inhibition at 10 µM for human GPR84 receptor (Homo sapiens, UniProt Q9NQS5) was ≤ 25%

I looked up CC(C)Oc1cc(C#CC2CC2)cnc1-c1cn(CC2OCC3(CCC3)O2)nn1 (stereo not drawn) [Compound I-797] and its inhibition at 10 µM for human GPR84 receptor (Homo sapiens, UniProt Q9NQS5) was > 75%

I looked up Cc1cc(N2CCN(Cc3cncnc3)CC2)ccc1-c1cn(CC2CCCCO2)nn1 (stereo not drawn) [Compound I-566] and its inhibition at 10 µM for human GPR84 receptor (Homo sapiens, UniProt Q9NQS5) was 25 to 50%

I looked up Cc1cc(C#CC2CC2)cnc1-c1cn(CC2CCOCC2)nn1 [Compound I-196] and its inhibition at 10 µM for human GPR84 receptor (Homo sapiens, UniProt Q9NQS5) was ≤ 25%

I looked up Cc1cc(N2CCCC23CNC3)ccc1-c1cn(CC2CCCCO2)nn1 (stereo not drawn) [Compound I-150] and its inhibition at 10 µM for human GPR84 receptor (Homo sapiens, UniProt Q9NQS5) was ≤ 25%

I looked up COC(C)(c1cccc(C#CC2CC2)c1)c1cn(CC2CCCCO2)nn1 (stereo not drawn) [Compound I-631] and its inhibition at 10 µM for human GPR84 receptor (Homo sapiens, UniProt Q9NQS5) was > 75%

I looked up Cc1cc(N2CC(C)(N(C)Cc3ccccn3)C2)ccc1-c1cn(CC2CCCCO2)nn1 (stereo not drawn) [Compound I-451] and its inhibition at 10 µM for human GPR84 receptor (Homo sapiens, UniProt Q9NQS5) was > 75%

I looked up Cc1cc(C#CC2CC2)ccc1-n1cc(CC2CCOCC2)nn1 [Compound I-269] and its inhibition at 10 µM for human GPR84 receptor (Homo sapiens, UniProt Q9NQS5) was ≤ 25%

I looked up C(#CC1CC1)c1cccc(Cc2cn(CC3CCCCO3)nn2)c1 (stereo not drawn) [Compound I-301] and its inhibition at 10 µM for human GPR84 receptor (Homo sapiens, UniProt Q9NQS5) was 50 to 75%

I looked up Cc1cc(C#CC2CC(F)(F)C2)ccc1-c1cn(CC2OCC(C)(C)CO2)nn1 [Compound I-662] and its inhibition at 10 µM for human GPR84 receptor (Homo sapiens, UniProt Q9NQS5) was > 75%

I looked up Cc1cc(N2CC3(CN(C)C3)C2)ccc1-c1cn(CC2CCCCO2)nn1 (stereo not drawn) [Compound I-145] and its inhibition at 10 µM for human GPR84 receptor (Homo sapiens, UniProt Q9NQS5) was ≤ 25%

I looked up Cc1cc(N2CC(C)(CN3CC(C)(C)C3)C2)ccc1-c1cn(CC2CCCCO2)nn1 (stereo not drawn) [Compound I-660] and its inhibition at 10 µM for human GPR84 receptor (Homo sapiens, UniProt Q9NQS5) was ≤ 25%

I looked up COC(C)(C)Cn1cc(-c2ccc(C#CCNc3ccccc3)cc2C)nn1 [Compound I-163] and its inhibition at 10 µM for human GPR84 receptor (Homo sapiens, UniProt Q9NQS5) was ≤ 25%

I looked up Cc1cc(C#CCN2CCC(F)(F)CC2)ccc1-c1cn(CC2CCCCO2)nn1 (stereo not drawn) [Compound I-118] and its inhibition at 10 µM for human GPR84 receptor (Homo sapiens, UniProt Q9NQS5) was > 75%
